test system: SK-OV-3 ovarian; assay: NCI tumour cell line growth inhibition, 48 h
Property: TGI; scope: individual molecules
PROPERTY: TGI

{"columns": ["MOLECULE", "EXPERIMENTAL RESULT"],
 "data": [
  ["CCCN(CCC)c1ccc(/C=C/c2ccc3cc(OCC)ccc3n2)cc1", "> 100 µM"],
  ["O=C1c2ccccc2CN1c1ccc(OCCN2CCCCC2)cc1", "> 10 µM"],
  ["C[C@]12CC[C@@H]3c4cc(-c5ccc(F)cc5)c(O)cc4CC[C@H]3[C@@H]1CC[C@@H]2O", "28.2 µM"],
  ["CCCCCCCCCCCCN1[C@H]2CCC[C@H]2C(O)[C@@H]2CCC[C@@H]21 (some centres not stated)", "> 100 µM"],
  ["COc1cccc2c1CCc1c(-c3ccc(F)cc3)cc(-c3ccc4ccccc4n3)nc1-2", "> 100 µM"],
  ["CCN1C(=O)C(=C/C=C/C=C2/N(C)c3ccccc3C2(C)C)C(=O)N(CC)C1=S", "> 100 µM"],
  ["COc1cccc(/C=C2\\CCCc3ccccc3C2=O)c1", "79.3 µM"],
  ["O=C(Nc1ccc(Cl)cc1Cl)C1C(=O)C(=O)N(c2ccc(Cl)cc2Cl)C1=O (configuration not stated)", "> 100 µM"],
  ["N#Cc1ccc2c(c1)C(=O)c1c-2n(CCCCl)c(=O)c2cc([N+](=O)[O-])ccc12", "24.7 µM"],
  ["C=C(NC(=O)C(=C)NC(=O)c1csc(C2=NC3c4csc(n4)C4NC(=O)c5csc(n5)C(C(C)(O)C(C)O)NC(=O)C5CSC(=N5)C(=CC)NC(=O)C(C(C)O)NC(=O)c5csc(n5)C3(CC2)NC(=O)C(C)NC(=O)C(=C)NC(=O)C(C)NC(=O)C(C(C)CC)NC2C=Cc3c(C(C)O)cc(nc3C2O)C(=O)OC4C)n1)C(N)=O (configuration not stated)", "> 100 µM"],
  ["COc1cc(-c2ccc(-c3ccc(C(=N)N)nc3)s2)cc(OC)c1OC", "26 µM"],
  ["CC(C)[O-].CC(C)[O-].O=C1C=C([O-])C(=O)c2ccccc21.O=C1C=C([O-])C(=O)c2ccccc21.[Ti+4]", "> 100 µM"],
  ["COc1cc(S(=O)(=O)Nc2nc(-c3ccc(N4C(=O)/C(=C/C=C/c5ccccc5)N=C4c4ccccc4)cc3)cs2)ccc1Cl", "> 100 µM"],
  ["CC1(C)CCc2c(c(N=Nc3ccc(S(N)(=O)=O)cc3)c3ccccc3c2O)O1", "16.2 µM"],
  ["COc1ccc(C(=O)C(C(=O)CC(=O)Nc2cccc(C(F)(F)F)c2)c2ccc(OC)cc2)cc1 (configuration not stated)", "> 100 µM"],
  ["CC(=Nc1ccccc1)C1=C(O)C(Cc2ccc(O)cc2)NC1=O (configuration not stated)", "> 50 µM"],
  ["NC(N)=NS(=O)(=O)c1ccc(NNc2c3ccccc3nc3c(C(=O)Nc4ccc(S(=O)(=O)N=C(N)N)cc4)cccc23)cc1", "> 100 µM"],
  ["O=[N+]([O-])c1ccc(N=Nc2c(O)ccc3ccccc23)c([N+](=O)[O-])c1", "> 100 µM"],
  ["CCOP(=O)(OCC)/C(=C/NC(=S)c1ccncc1)C(=O)OC", "> 100 µM"],
  ["CSC1=Nc2ccccc2-c2nc3ccccc3cc2C1", "> 100 µM"],
  ["COc1cc(N2CCC(N3CCN(C)CC3)CC2)ccc1Nc1ncnc(Nc2ccccc2S(=O)(=O)C(C)C)n1", "30.5 µM"],
  ["COc1ccc(N2C(=O)[C@H]3[C@H]4CC(C(C)(C)C)CC[C@H]4c4c(n(C)c5ccccc45)[C@H]3C2=O)cc1 (some centres not stated)", "> 100 µM"],
  ["O=C1c2ccccc2-c2oc(=O)c3ccccc3c21", "> 100 µM"],
  ["COC(=O)C1=CSC2(S1)C(C(=O)OC)=CSc1c2ssc1=O (configuration not stated)", "29.7 µM"],
  ["Cc1c(CCN2CCOCC2)c(N2CCOCC2)n2c(nc3ccccc32)c1C#N", "> 10 µM"],
  ["CC(=O)c1cccc(C)c1C(=O)O", "> 100 µM"],
  ["Oc1c(Cl)c(Cl)c(O)c(CCNc2ccc3ncccc3c2)c1Cl", "27.6 µM"]
]}

---

Property: TGI; scope: individual compounds
test system: EKVX NSCLC; experiment: NCI tumour cell line growth inhibition, 48 h
PROPERTY: TGI

{"columns": ["ENTRY SMILES", "PROPERTY", "EXPERIMENTAL RESULT"],
 "data": [
  ["COc1ccc(/C=C2\\CN(C)C/C(=C\\c3ccc(OC)cc3)C2=O)cc1", "TGI", "> 100 µM"],
  ["O=c1ccs[nH]1", "TGI", "27.2 µM"],
  ["CCN(Cc1ccccc1)c1ccc(CO)c(Cl)c1", "TGI", "74.5 µM"],
  ["COc1ccc(P2(=S)Oc3ccccc3-c3ccccc3O2)cc1", "TGI", "> 100 µM"],
  ["Cc1cc(C)c(S(=O)(=O)N2CCCN(S(=O)(=O)c3c(C)cc(C)cc3C)OCCCO2)c(C)c1", "TGI", "> 100 µM"],
  ["Cc1cccc(C)c1NC(=O)C(=O)CC(=O)/C=C/c1ccccc1", "TGI", "> 100 µM"],
  ["CC(=O)[C@@H]1C/C(=C\\OCc2ccccc2)O[C@H]1C", "TGI", "> 100 µM"],
  ["CN(C)CCCn1c(Cc2ccc(Cl)cc2)nc2cc(C(F)(F)F)ccc21", "TGI", "32.7 µM"]
]}

---

system: OVCAR-4 ovarian; test: NCI tumour cell line growth inhibition, 48 h
PROPERTY: TGI

{"columns": ["COMPOUND", "TESTED SYSTEM", "EXPERIMENTAL RESULT"],
 "data": [
  ["C=C(NC(=O)C(=C)NC(=O)c1csc(C2=NC3c4csc(n4)C4NC(=O)c5csc(n5)C(C(C)(O)C(C)O)NC(=O)C5CSC(=N5)C(=CC)NC(=O)C(C(C)O)NC(=O)c5csc(n5)C3(CC2)NC(=O)C(C)NC(=O)C(=C)NC(=O)C(C)NC(=O)C(C(C)CC)NC2C=Cc3c(C(C)O)cc(nc3C2O)C(=O)OC4C)n1)C(N)=O (centres undefined)", "OVCAR-4 ovarian", "> 100 µM"],
  ["CN1C/C(=C\\c2cccs2)C2=NN(C)C(c3cccs3)C2C1 (centres undefined)", "OVCAR-4 ovarian", "> 100 µM"],
  ["COc1ccc(-c2cc(-c3ccc(Cl)cc3)nc(SCCCC(=O)NO)n2)cc1", "OVCAR-4 ovarian", "11.6 µM"],
  ["CO[C@@H]1C[C@H]2[C@@H]3CC[C@H]([C@@H](C)CO)[C@@]3(C)CC[C@@H]2[C@@]2(C)CC[C@H]3C[C@]312", "OVCAR-4 ovarian", "> 100 µM"],
  ["Cc1ccc(NC2=C(Cl)C(=O)N(Cc3ccc(Cl)cc3)C2=O)cc1O", "OVCAR-4 ovarian", "> 100 µM"],
  ["COc1cccc2c1CCc1cc3c(N)nc(N)nc3nc1-2", "OVCAR-4 ovarian", "32.5 µM"],
  ["CCN(Cc1ccccc1)c1ccc(CO)c(Cl)c1", "OVCAR-4 ovarian", "12.1 µM"],
  ["CCO/C=N\\c1c(C#N)c(-c2ccc(Cl)cc2)cn1-c1ccc(C)cc1", "OVCAR-4 ovarian", "> 100 µM"],
  ["COc1ccc2c3c([nH]c2c1[N+](=O)[O-])C(C)N(Cc1ccc([N+](=O)[O-])cc1)CC3 (centres undefined)", "OVCAR-4 ovarian", "12.2 µM"],
  ["CCOC(=O)NC1C2CC(=O)OC(O2)C1OC(C)=O (centres undefined)", "OVCAR-4 ovarian", "> 100 µM"],
  ["O=c1cc(N2CCN(CCCCCOc3cc(O)c4c(=O)cc(-c5ccccc5)oc4c3)CC2)c2ccccc2o1", "OVCAR-4 ovarian", "> 100 µM"],
  ["COc1ccccc1C(O)(c1ccccc1)C(O)(c1ccccc1)c1ccccc1OC (centres undefined)", "OVCAR-4 ovarian", "> 100 µM"],
  ["O=C(Nc1ccc(Cl)cc1Cl)C1C(=O)C(=O)N(c2ccc(Cl)cc2Cl)C1=O (centres undefined)", "OVCAR-4 ovarian", "> 100 µM"],
  ["C=C1C(C2(C)C(OC(C)=O)CC(=O)OC(C)(COC(C)=O)C2CC(=O)OC)C(OC=O)C(OC(=O)C(O)C(C)CC)C2(C)C(c3ccoc3)CC(=O)C12O (centres undefined)", "OVCAR-4 ovarian", "> 100 µM"],
  ["c1ccc(N=C(Nc2ccccc2)N2CCCC2)cc1", "OVCAR-4 ovarian", "> 100 µM"],
  ["c1cc(N2CCCN(c3ccc(C4=NCCCN4)cc3)CC2)ccc1C1=NCCCN1", "OVCAR-4 ovarian", "> 100 µM"],
  ["CC(C)OP(=O)(OC(C)C)c1nc(-c2ccccc2)n(-c2ccc([N+](=O)[O-])cc2)n1", "OVCAR-4 ovarian", "> 100 µM"],
  ["Nc1c2ccccc2nc2ccc3c(=O)cc(-c4ccccc4)oc3c12", "OVCAR-4 ovarian", "1.1 µM"],
  ["O=C(O)C1CCCCC1C(=O)Nn1cnnc1 (centres undefined)", "OVCAR-4 ovarian", "> 100 µM"],
  ["COc1c(OC(C)C)c(OC(C)C)c2oc(=O)n3c2c1C(c1ccccc1-n1c(C)ccc1C)C=C3 (centres undefined)", "OVCAR-4 ovarian", "> 100 µM"],
  ["CN(C)CCCNc1ccc2c(=O)n(CCN(C)C)c(=O)n3c4ccccc4c(=O)c1c23", "OVCAR-4 ovarian", "4.35 µM"],
  ["NC(=O)CCC(Nc1c2ccccc2nc2ccccc12)C(=O)O (centres undefined)", "OVCAR-4 ovarian", "80.8 µM"],
  ["O=C1c2ccccc2CN1c1ccc(OCCN2CCCCC2)cc1", "OVCAR-4 ovarian", "> 10 µM"],
  ["C[C@]12CC[C@@H]3c4cc(-c5ccc(F)cc5)c(O)cc4CC[C@H]3[C@@H]1CC[C@@H]2O", "OVCAR-4 ovarian", "17.1 µM"],
  ["O=C(CC(C(=O)c1cccs1)c1cccs1)c1ccsc1 (centres undefined)", "OVCAR-4 ovarian", "> 100 µM"],
  ["O=C1CC(=O)N(C(=O)c2nn(-c3ccc(Cl)cc3)cc2O)N1", "OVCAR-4 ovarian", "> 100 µM"],
  ["C/C(=N\\n1c(Cc2ccccc2)n[nH]c1=O)c1ccccc1", "OVCAR-4 ovarian", "> 100 µM"],
  ["CCN(CC)CCCNC(=O)C1COc2cc(-c3cc(=O)c4ccccc4o3)ccc2O1 (centres undefined)", "OVCAR-4 ovarian", "> 100 µM"],
  ["Oc1c(Cl)c(Cl)c(O)c(CCNc2ccc3ncccc3c2)c1Cl", "OVCAR-4 ovarian", "> 100 µM"],
  ["O=C1C=CC(=O)C12CCc1ccccc12", "OVCAR-4 ovarian", "> 100 µM"],
  ["N#Cc1c(=O)c2ccccc2n2c1[nH]c1ccccc12", "OVCAR-4 ovarian", "> 100 µM"],
  ["COc1ccc(/C(COc2ccc3c(=O)c(-c4ccccc4)coc3c2)=N\\O)cc1", "OVCAR-4 ovarian", "> 100 µM"],
  ["COC(=O)[C@]12CC[C@H]3CC[C@H]([C@H]31)[C@H](c1ccccc1)N2", "OVCAR-4 ovarian", "31.6 µM"],
  ["Cc1occc1C(=S)Nc1ccc(Cl)c(C(=O)OC(C(C)C)C(C)C)c1", "OVCAR-4 ovarian", "41.9 µM"],
  ["O=C(c1c(F)c(F)c(F)c(F)c1F)N1CCN(C(=O)c2c(F)c(F)c(F)c(F)c2F)C1=S", "OVCAR-4 ovarian", "10.4 µM"],
  ["CC(=C/C=C/C=C(C)\\C=C\\C=C(\\C)C(=O)O)/C=C/C=C(/C)C(=O)O", "OVCAR-4 ovarian", "> 100 µM"],
  ["COc1ccc(-c2cc(=O)c3ccccc3o2)cc1N", "OVCAR-4 ovarian", "> 100 µM"],
  ["c1ccc(C2=NCCN2)c(C2=NCCN2)c1", "OVCAR-4 ovarian", "> 100 µM"],
  ["O=S(=O)(c1ccccc1)C(c1ccc2ccccc2n1)S(=O)(=O)c1ccccc1", "OVCAR-4 ovarian", "> 100 µM"]
]}
